# study-target: T1, human EphA3 (Homo sapiens, UniProt P29320)
# T1 construct: a protein of the extracellular region of each human Eph receptor fused with the SEAP protein and the His tag; made in house; host or cells: Expi293F cells (culture supernatant)
# T1 sequence (P29320 21-541 limits assumed): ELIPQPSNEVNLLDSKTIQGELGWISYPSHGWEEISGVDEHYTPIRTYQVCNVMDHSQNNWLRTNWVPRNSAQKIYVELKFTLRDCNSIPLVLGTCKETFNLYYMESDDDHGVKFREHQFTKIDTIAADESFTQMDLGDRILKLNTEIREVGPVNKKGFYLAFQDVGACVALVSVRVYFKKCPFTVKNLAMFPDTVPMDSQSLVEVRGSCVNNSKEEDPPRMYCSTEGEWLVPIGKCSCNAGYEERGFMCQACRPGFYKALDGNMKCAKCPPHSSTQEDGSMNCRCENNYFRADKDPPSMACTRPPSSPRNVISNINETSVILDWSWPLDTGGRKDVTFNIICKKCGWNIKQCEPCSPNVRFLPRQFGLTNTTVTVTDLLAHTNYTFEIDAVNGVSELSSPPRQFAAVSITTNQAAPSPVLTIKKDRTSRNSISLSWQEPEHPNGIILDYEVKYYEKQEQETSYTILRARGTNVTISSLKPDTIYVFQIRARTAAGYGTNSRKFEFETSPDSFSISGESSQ
# measurement-description: Selectivity ELISA of humanized antibodies for human Eph receptor
# Format: binding
# assay-context: coated protein 1 nM
# Excerpt: According to the method described in Example 7, a DNA sequence encoding the signal sequence and the extracellular region of each human Eph receptor (EphA1, EphA2, EphA3, EphA4, EphA5, EphA6, EphA7, EphA8, EphA10, EphB1, EphB2, EphB3, EphB4, and EphB6) was amplified by RT-PCR using tissue-derived total RNA and cloned into a pENTR1A vector (Invitrogen/Life Technologies) having a DNA sequence encoding SEAP protein and histidine tag. […]
Each record here notes measured hEphA3-SEAP-: absorbance at 450 nm, percentage with respect to hEphA4-SEAP-His as 100%.
The figure you give is taken to be in %; do not add the unit.

molecule="143 (antibody, V domains shown, synthetic humanized antibody heavy chain variable region sequence; synthetic humanized antibody light chain variable region sequence) VH: QIQLVQSGSELKKPGASVKVSCKASGYTFTDYSMHWVRQAPGQGLKWMGWINTETGEPTYADDFKGRFVFSLDTSVSTAYLQISSLKAEDTAVYYCARIPLYYYGSRYWYFDVWGQGTTVTVSS VL: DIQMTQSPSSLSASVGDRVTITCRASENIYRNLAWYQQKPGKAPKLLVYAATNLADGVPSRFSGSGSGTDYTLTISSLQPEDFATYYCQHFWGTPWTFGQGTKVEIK" unit=% assay_result=5.6

For the next question, use this molecule.
Task: Quick check: hEphA3-SEAP-: absorbance at 450 nm, percentage with respect to hEphA4-SEAP-His as 100% of 85 (antibody, V domains shown, constant regions without entry; synthetic humanized antibody light chain variable region sequence; synthetic humanized antibody heavy chain variable region sequence) VL: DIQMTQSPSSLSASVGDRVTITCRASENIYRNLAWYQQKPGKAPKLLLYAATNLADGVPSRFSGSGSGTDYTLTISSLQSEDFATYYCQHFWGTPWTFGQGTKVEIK VH: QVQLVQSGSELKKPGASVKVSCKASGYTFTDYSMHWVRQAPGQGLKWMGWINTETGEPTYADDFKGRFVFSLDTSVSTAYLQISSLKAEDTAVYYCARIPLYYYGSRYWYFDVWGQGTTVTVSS ?
Output: 5.1
